The origin of these recorded values is the DeepSol protein solubility set.

PROTOCOL: soluble on expression in E. coli; label from the status in PepcDB or PDB records
PROPERTY_LABEL: soluble on expression in E. coli

INSERT INTO assay_data (sequence_code, meas_value) VALUES
  ('MGSDKIHHHHHHMRVKYPSIPHLPWSPGLQNDDRRITSLSGFIGKEVVVTEKLDGENTSLYRDDLHARSLDMRPHPSRTWVKAERGRVAHDIPLGWRFCGENVYAVHSLKYDDLDGYFYLFSVWDDLNVSRPWDEVRGWAERLSLPTPRELYRGPWDEAALQALDPDPERMEGYVVRVTAAIPYADFGRKVAKWVRRGHVQTDQHWLSQPVEPNGLKRQEQS', 'not soluble'),
  ('MGHHHHHHSHMGEIESYCNKELGPLPTKAPTLSKNVLDLFSLKGKVASVTGSSGGIGWAVAEAYAQAGADVAIWYNSHPADEKAEHLQKTYGVHSKAYKCNISDPKSVEETISQQEKDFGTIDVFVANAGVTWTQGPEIDVDNYDSWNKIISVDLNGVYYCSHNIGKIFKKNGKGSLIITSSISGKIVNIPQLQAPYNTAKAACTHLAKSLAIEWAPFARVNTISPGYIDTDITDFASKDMKAKWWQLTPLGREGLTQELVGGYLYLASNASTFTTGSDVVIDGGYTCP', 'not soluble');

* * *

PROTOCOL: soluble on expression in E. coli; label from the status in PepcDB or PDB records
PROPERTY_LABEL: soluble on expression in E. coli

INSERT INTO measurements (sequence_code, property_label, meas_value) VALUES
  ('MGSDKIHHHHHHMNRLEIVNNISTNIERERIKLGMSQAQFAKALDMSLSTYKRIANGESSRIDVYTAYLIYKLTGRFSCELTGFNDDVINLVKRIKKLSKSQRILIDSIIDTELALSAYKDESCHTEDLISVLIPTGNMTDGMILDSYNVEKLDVSNYRKAFGDALHIGIRITSNHLHPVYNKGDILLISRNPIRDGDTGIFINAQNKRAYIRKLHQKNPCELTPINNYGETFYVDSDNVDDMSKWIKFGHVLCKVR', 'soluble on expression in E. coli', 'not soluble'),
  ('MSLTFLTGVPGFLGTRLLRRLAAAAPDRSFLLLVQPKFEGRTHTLLADRGLADRATVLPGDITEPDLGLGAHYDAVAEQITRAVHLAAVYDLTIPREVGWQVNVEGTRHVLDLLAQCPSLERFGYVSSAYVSGERTGTIHEDELVHEAGFKNFYEETKYHAEVLVQDRMDEIPTLVFRPSIVVGDSETGATDKFDGVYFVLNALRSLPRYTPMTRIGSGTEPVNLVPVDFVVDAMGHLLGTEGHAGTVFHLTDPRPLTAQAIMELLADLLDKRVAYVPVPPGLARAMMKTGVGRALGLAPELIDYFDHPSHYDASNTRAALDGTGIDCPFLPDYAPAMVAYARRHDARSSAMYEGHHHHHH', 'soluble on expression in E. coli', 'not soluble');

* * *

PROTOCOL: soluble on expression in E. coli; label from the status in PepcDB or PDB records
PROPERTY_LABEL: soluble on expression in E. coli

INSERT INTO results (sequence_code, property_label, meas_value) VALUES
  ('MRPLKVALVNIPLRVPGSDAWISVPPQGYGGIQWVVANLMDGLLELGHEVFLLGAPGSPAGRPGLTVVPAGEPEEIERWLRTADVDVVHDHSGGVIGPAGLPPGTAFISSHHFTTRPVNPVGCTYSSRAQRAHCGGGDDAPVIPIPVDPARYRSAADQVAKEDFLLFMGRVSPHKGALEAAAFAHACGRRLVLAGPAWEPEYFDEITRRYGSTVEPIGEVGGERRLDLLASAHAVLAMSQAVTGPWGGIWCEPGATVVSEAAVSGTPVVGTGNGCLAEIVPSVGEVVGYGTDFAPDEARRTLAGLPASDEVRRAAVRLWGHVTIAERYVEQYRRLLAGATWK', 'soluble on expression in E. coli', 'soluble'),
  ('MAHHHHHHMLRFRVRLPKGKEPVSMDLDGTTTWGSFVQSISSLTDVPCSQLRILSGFPPRPVEVGDGAASIASVLPGGGNVIVQVGEADVVKGKTEGRYVPPVDGKWHFVRRVCPSDNSCLFHAAAYVLRNKSRVDGPSLRKECADIVQAYPNVFNEKTILDRPNREYVDFIRNPNAWGGAIELMVLSFLTQTEIVALDLTSSNVLHFGEDNNYTVRAYVVFNGQHYDAIAMNPMFNSPQESEDQVLFSSTDAEVLNRARRFVADEAKKLRLR', 'soluble on expression in E. coli', 'soluble'),
  ('MGSDKIHHHHHHMIRINVVGFKGGSGKSTISYHLARQLSEYYNVVLVDKTYSGTISRIYNINNNIFSFLKGRNELFYINKNNLSVINMSFLNEDDLNGIDFNAFKYLYSKLTKDSDIVIVDHSSIPHDFATEIELKAFMENFRNFAYNTVLVLSGDEIPIKKYLNYTVLLNDFVKNYAEKILGISLPTDVKFLKIVAVIINKILKGQESKLEEFIRGDEILQRSARFIIPYYLSLTQRHFKDIDPPKEISDITRYILDFLREPTSIL', 'soluble on expression in E. coli', 'not soluble'),
  ('MGSDKIHHHHHHVDKLLYVAMSGAKQNMNSLAVRANNLANANTDGFKSDLEQARSMQAFGEGLPTRVFSMTENPSANFAAGPIKTTGRDLDIAVKGDGWIAVQAVDGGEAYTRSGSLSFDTSGLLRNDRGNPVMGDAGPIVLPLPIEKVEIAQDGTISVRPLGSTAEVIEEVGRIKLVNPGNQNLMRGEDGLFRQLSGVNAPADPNVAVESGAIEGSNVNAVDEMVSLIDLQRQFEMQVKMMKTAEEMDQASSSLMRIS', 'soluble on expression in E. coli', 'not soluble'),
  ('MGSDKIHHHHHHLLQRTFNIQHHSSLPLLSILSYFPTSLLKPGGRMAIVLPQGRFNNSSDKNIRDFIAERCRILAVVGLHGNTFKPHTGTKTSVLFVQKWNDDPKAGALCPRQDDYNIFFATMRKSGKDNSGDKIWRKISSSTASPPDDELSDLMPPSPVQRVVGVEGDFLRDNHEHLVVDHDLYNHEGKTEDGIAEAFIEFAKKENFSFFELSPSVTPFDAVKYQQLMDGLEAVEVSLNQALDHNLHFRFDSEFFKRIYFQVEAEIKALPHTRLSSTQPIIIHPTEIKREYVEDDSSGVLFFRTQNLRPLRVDLSNQVYISEEDAAKLSKNIIQKNDVLITITGANFGDTLIFKGEIEAIALSHVFILRNKKISQSFLAVFLNTFYGREQINKGMYGGV', 'soluble on expression in E. coli', 'not soluble'),
  ('MGSDKIHHHHHHMKALIFDVDDTLYDQIQPFERALERHIEVAREQIEPLYLSFRRYADEVFEATAIGKMSLKDSHIYRMKHALADFGYQVSDATALAIQIDYDYFQGQIELSPVFPEIFSWCQAQGIAMGIITNGPYRHQLRKIRTMGLVNWFELEHVLISGQVGITKPNPAIFQLMEERLGMSGEDICYLGDSFENDVVGAKAANWKAIWFNHRKRVEPTAPYYAYYVVTDWDELVEVIQSF', 'soluble on expression in E. coli', 'not soluble'),
  ('MNSEHPMTDRVVYRSLMADNLRWDALQLRDGDIIISAPSKSGLTWTQRLVSLLVFDGPDLPGPLSTVSPWLDQTIRPIEEVVATLDAQQHRRFIKTHTPLDGLVLDDRVSYICVGRDPRDAAVSMLYQSANMNEDRMRILHEAVVPFHERIAPPFAELGHARSPTEEFRDWMEGPNQPPPGIGFTHLKGIGTLANILHQLGTVWVRRHLPNVALFHYADYQADLAGELLRPARVLGIAATRDRARDLAQYATLDAMRSRASEIAPNTTDGIWHSDERFFRRGGSGDWQQFFTEAEHLRYYHRINQLAPPDLLAWAHEGRRGYDPAN', 'soluble on expression in E. coli', 'soluble'),
  ('GPGSMIPGLPPAFDVECNRMEDVFASVKSRTVGKDGNLLSPEESWVQRELQYYENLYTEQQELTVCLVTFNVACKKPPANLAALISLKMAEDTNRPVDLIMVSLQEVDMSASAMLKEETEASTPWVVGLHAAVGADSRSPSNTPYFAFPPKQLVGLLLCVYLRRQLLPYMQEMSVATVATGALGSMGNKGAIGLRLVLHRTSLCLINVHLAAGQSNVVKT', 'soluble on expression in E. coli', 'not soluble'),
  ('METAMSKGVITITDAEFESEVLKAEQPVLVYFWASWCGPCQLMSPLINLAANTYSDRLKVVKLEIDPNPTTVKKYKVEGVPALRLVKGEQILDSTEGVISKDKLLSFLDTHLNNN', 'soluble on expression in E. coli', 'soluble'),
  ('VREVCSEQAETGPCRAMISRWYFDVTEGKCAPFFYGGCGGNRNNFDTEEYCMAVCGSA', 'soluble on expression in E. coli', 'soluble'),
  ('MKIGIIGAMQQEVAILKDLIEDVQEVNQAGCTFYSGQIQGVDVVLLQSGIGKVSAALGTALLISQYAPDVVINTGSAGGFDASLNVGDVVISSEVRHHDADVTAFGYEIGQMAGQPAAFKADEKLMTVAEQALAQLPNTHAVRGLICTGDAFVCTAERQQFIRQHFPSVVAVEMEASAIAQTCHQFKVPFVVVRAISDVADKESPLSFEEFLPLAAKSSSAMVLKMVELLK', 'soluble on expression in E. coli', 'soluble');
